Molecular target: SYN3
Test: pooled miR-30 sensor sort-seq; sequence = guide strand; further: reference of the scale not given here
Conditions: shRNA
Exercise: for every item that follows, state its recorded sensor-assay potency score (higher = more potent).
Numbers only.

Give sensor-assay potency score (higher = more potent) for all sequences that follow.
1. TAGTTGGATCCAATTTTCTGGA
2. TTTTGGAGACAACAAGGTCGGC
3. TTCCACTTTGATCTTTCCCATT
4. TAATCTCTGCCATCCTTGCTGT

Reply |
1. -1.06
2. -0.766
3. -1.45
4. -0.283

----------
Biological target: ACACB
Test: pooled miR-30 sensor sort-seq; sequence = guide strand
Settings: shRNA
Readout type: sensor-assay potency score (higher = more potent)
Numbers only.

Give sensor-assay potency score (higher = more potent) for all sequences that follow.
1. TTATCAGATCTTTCTTTCGGAA
2. TTCATGTAGGTGGTGTAGCTGT
3. TAATTTCTTGAGGTTCTCGGGG

Reply |
[-0.751, -0.772, -0.145]

Ask | What value of sensor-assay potency score (higher = more potent) has been reported for the following sequence? "TTGTAAGCTGGATCGATCCTTC"
Reply | -0.276

----------
Biological target: PHF20
Test: pooled miR-30 sensor sort-seq; sequence = guide strand
Conditions: shRNA
Exercise: for every item that follows, state its recorded sensor-assay potency score (higher = more potent).

Consider the reported sensor-assay potency score (higher = more potent) for these sequences:
TTCCTTGTCTTCCTTCTCGTTC | -0.88
TTGACAGTCTGAACTACTCCAT | -0.0489
TTAACTTTCCTTCTTTATCAGG | -0.815
TAAACTTATGGTCTAGGTCGAC | -0.7
TTCTCAATGGAGTCCATCCTGT | -0.423

Ask | What value of sensor-assay potency score (higher = more potent) has been reported for the following sequence? "TTGTGTGAGGACCCACACCTGG"
Reply | -1.15

----------
Exercise: for every item that follows, state its recorded sensor-assay potency score (higher = more potent).
Molecular target: KLC3
Experiment: pooled miR-30 sensor sort-seq; sequence = guide strand
Settings: shRNA

Consider the reported sensor-assay potency score (higher = more potent) for these sequences:
TTGTACTTGTTCTGGTCCCGGT | -0.388
TTGTACAGCTCTTCCGCTTGTT | 0.24
TCTTTGTACAGCTCTTCCGCTT | -0.542

Ask | What value of sensor-assay potency score (higher = more potent) has been reported for the following sequence? "TTCTTTGTACTTGTTCTGGTCC"
Reply | -0.164

----------
Target: SULT1A2
Test: pooled miR-30 sensor sort-seq; sequence = guide strand
Details: shRNA
Readout type: sensor-assay potency score (higher = more potent)
Give bare numbers.

TCCAGCCATGAACTTCTCCAGG | -1.76
ATGAGGTCCACAGTCTCCTCTG | -1
TCTTGCACGTGCTGGTACCAGG | -1.6
TAGGAAACCGCCACATCCTTTG | -0.928

Ask | What value of sensor-assay potency score (higher = more potent) has been reported for the following sequence? "ACCCATAGGACACTTCTCCAGC"
Reply | -2.4

----------
Exercise: for every item that follows, state its recorded sensor-assay potency score (higher = more potent).
Biological target: GAPDH
Assay: pooled miR-30 sensor sort-seq; sequence = guide strand
Details: shRNA
Numbers only.

Consider the reported sensor-assay potency score (higher = more potent) for these sequences:
ATATTGGAACATGTAAACCATG | -1.54
TATTGGAACATGTAAACCATGT | -0.597
AATTCGTTGTCATACCAGGAAA | -1.59
TTGATGGCAACAATATCCACTT | -0.344
TGAGCTTGACAAAGTGGTCGTT | 0.19

Give sensor-assay potency score (higher = more potent) for all sequences that follow.
1. TTGGAACATGTAAACCATGTAG
2. TGTTGTCATACTTCTCATGGTT
3. AACATGTAAACCATGTAGTTGA

Reply |
1: -0.273; 2: 0.0358; 3: -0.65

----------
Exercise: for every item that follows, state its recorded sensor-assay potency score (higher = more potent).
Molecular target: OXGR1
Assay: pooled miR-30 sensor sort-seq; sequence = guide strand
Conditions: shRNA
One number for each entry.

TTTCTTTGCTTGCTCAAGGTTC | -0.282
TAATAGTATTGAGTTCATCCGA | -0.637
TTCAGCATAATGATGGTGCTGC | 0.6
TTGAAATGGAAGCTGAAGCGGA | 0.195
TTGAGTTCATCCGAACTGGTGA | 0.378

Now consider the entry below.
Ask | What value of sensor-assay potency score (higher = more potent) has been reported for the following sequence? "TTGCATCTCACTGTTGAGCAGA"
Reply | -0.0433

----------
Exercise: for every item that follows, state its recorded sensor-assay potency score (higher = more potent).
Target: KRTAP6-3
Test: pooled miR-30 sensor sort-seq; sequence = guide strand
Details: shRNA
Numbers only.

Consider the reported sensor-assay potency score (higher = more potent) for these sequences:
TAGTAGCTGCCACACATGGTGT | -1.17
TAGCCACAGCCACAGAAGGAGC | -1.94
ACAGCCATAGCCACAGTCCAGG | -1.73

Give sensor-assay potency score (higher = more potent) for all sequences that follow.
1. TCTGTAGCCACAGCCACAGAAG
2. TAGTTTCTGTAGTAGCTGCCAC

Reply |
-1.55
-0.443

----------
Target: C19orf43
Assay: pooled miR-30 sensor sort-seq; sequence = guide strand
Conditions: shRNA
Readout type: sensor-assay potency score (higher = more potent)
Give bare numbers.

Consider the reported sensor-assay potency score (higher = more potent) for these sequences:
TAAATAGTTATGTACATCGCAG | -0.74
TACTTGTTAATACCTCATCCTC | -0.735

Now consider the entry below.
Ask | What value of sensor-assay potency score (higher = more potent) has been reported for the following sequence? "TTGAGGGCTAGTTTGTTCCCGC"
Reply | -0.869

----------
Target: ETFA
Assay: pooled miR-30 sensor sort-seq; sequence = guide strand
Conditions: shRNA
Cut-off -0.5 on sensor-assay potency score (higher = more potent), inclusive. At or above means TRUE; below means FALSE.

TTCTCATCACACTTCACTGTAC | TRUE
TATTCCATAATCTGCCACTTGG | TRUE
TGTAATTGAACTGCTTCTGAGT | TRUE
TTTCACTTTCTCATCACACTTC | TRUE
TGTGTAATTGAACTGCTTCTGA | TRUE

Ask | Threshold query (sensor-assay potency score (higher = more potent) >= -0.5) on "TTTCTGAACTGGCACTACCGCC"
Reply | FALSE

----------
Target: RELA
Test: pooled miR-30 sensor sort-seq; sequence = guide strand
Conditions: shRNA
Exercise: for every item that follows, state its recorded sensor-assay potency score (higher = more potent).
Give bare numbers.

TTCATCATCAAACTGCAGCTGC | 0.151
TTGAGCTCGGCAGTGTTGGGGG | 0.294
TTTCTGCACCTTGTCACACAGT | -0.991

Now consider the entry below.
Ask | Lab request: please report sensor-assay potency score (higher = more potent) under test system RELA for "TTGTCGGTGCACATCAGCTTGC"
Reply | -0.891

----------
Biological target: DHPS
Test: pooled miR-30 sensor sort-seq; sequence = guide strand
Conditions: shRNA
Readout type: sensor-assay potency score (higher = more potent)

Consider the reported sensor-assay potency score (higher = more potent) for these sequences:
TGTGTTGATGTAAACAGCGTAG | -0.876
TTGACTTGCTGTACAGCGCGCC | 0.283
TGAGGTTGGATGTATATCCCAG | -0.155
TTCTGCTCCATCACCATCTGGT | 0.0359
TTGTGCTGCACAAGGTAGCGAA | -0.894

Now consider the entry below.
Ask | What value of sensor-assay potency score (higher = more potent) has been reported for the following sequence? "TTGCTGTACAGCGCGCCCGAAG"
Reply | -1.67

----------
Target: ANK1
Assay: pooled miR-30 sensor sort-seq; sequence = guide strand
Conditions: shRNA
Readout type: sensor-assay potency score (higher = more potent)

TCATCTGTCATGCAGTAGCAGC | -1.12

Give sensor-assay potency score (higher = more potent) for all sequences that follow.
1. TTCTAGAATGATTTCTTTGTGC
2. TTGCGAATGATCTTCTTGGTGA
3. TTGTGCAGCATCTTGCAGGTAT
4. TAGCTTCGGCACAAAATCCAGC

Reply |
1. 0.132
2. 0.462
3. 0.193
4. -0.878

----------
Molecular target: JMJD1C
Test: pooled miR-30 sensor sort-seq; sequence = guide strand
Conditions: shRNA
Exercise: for every item that follows, state its recorded sensor-assay potency score (higher = more potent).
One number for each entry.

Give sensor-assay potency score (higher = more potent) for all sequences that follow.
1. ATTGACAGAACTTATCACCTAT
2. TATCTCTAGAACTCTTCCTTTC
3. TTCAATTTTAAAACAACTGTTT

Reply |
0.441
-0.557
-0.691
